Data credit: paper PMC4361473

Assay remarks: Effective therapeutic plasma concentration (ETPC, ETPCunbound)
Type: in vivo, human
Test context: free plasma concentration calculated from ETPC and free drug %, Supplementary Table 1
Below, each entry is listed alongside its reported log10 ETPCunbound.
Assay endpoint: log10 ETPCunbound (log10 of the value in nM)

- Compound: "COc1ccc(CCN2CCC(Nc3nc4ccccc4n3Cc3ccc(F)cc3)CC2)cc1"
  log10 ETPCunbound: -0.70
- Compound: "CC(C)(C)NCC(O)COc1cccc2c1CC(O)C(O)C2 (stereo not shown)"
  log10 ETPCunbound: 2.43
- Compound: "CSc1ccc2c(c1)N(CCC1CCCCN1C)c1ccccc1S2 (stereo not shown)"
  log10 ETPCunbound: 1.95
- Compound: "O=C(NCC1CCCCN1)c1cc(OCC(F)(F)F)ccc1OCC(F)(F)F (stereo not shown) [Flecainide, flecainide]"
  log10 ETPCunbound: 3.06
- Compound: "CC(C)NCC(O)c1ccc(NS(C)(=O)=O)cc1 (stereo not shown)"
  log10 ETPCunbound: 4.17
- Compound: "COc1cc(N)c(Cl)cc1C(=O)NC1CCN(CCCOc2ccc(F)cc2)CC1OC (stereo not shown) [Cisapride, cisapride]"
  log10 ETPCunbound: 0.48
- Compound: "Cc1onc(-c2ccccc2)c1-c1ccc(S(N)(=O)=O)cc1"
  log10 ETPCunbound: 1.65

----------
Below, each entry is listed alongside its reported EC20 AHI.
Test system: Cytiva hSCCMs
Assay remarks: SALVO profiling of drug-evoked Ca2+ signal perturbation (fluo-4 confocal imaging)
Test context: 20% change from control in amplitude heterogeneity index; regression of Figure 3 data

- Molecule: "COc1ccc(CCN2CCC(Nc3nc4ccccc4n3Cc3ccc(F)cc3)CC2)cc1"
  Reported relation: "="
  EC20 AHI / nM: 100
- Molecule: "CC(C)(C)NCC(O)COc1cccc2c1CC(O)C(O)C2 (stereo not drawn)"
  Reported relation: ">"
  EC20 AHI / nM: 30000
- Molecule: "CC(C)NCC(O)c1ccc(NS(C)(=O)=O)cc1 (stereo not drawn)"
  Reported relation: "="
  EC20 AHI / nM: 210
- Molecule: "COc1cc(N)c(Cl)cc1C(=O)NC1CCN(CCCOc2ccc(F)cc2)CC1OC (stereo not drawn) [Cisapride, cisapride]"
  Reported relation: "="
  EC20 AHI / nM: 40
- Molecule: "O=C(NCC1CCCCN1)c1cc(OCC(F)(F)F)ccc1OCC(F)(F)F (stereo not drawn) [Flecainide, flecainide]"
  Reported relation: "="
  EC20 AHI / nM: 260
- Molecule: "CSc1ccc2c(c1)N(CCC1CCCCN1C)c1ccccc1S2 (stereo not drawn)"
  Reported relation: "="
  EC20 AHI / nM: 205

----------
Tested on: Cytiva hSCCMs
Assay remarks: SALVO profiling of drug-evoked Ca2+ signal perturbation (fluo-4 confocal imaging)
Test context: 20% change from control in temporal heterogeneity index; regression of Figure 3 data
Below, each entry is listed alongside its reported EC20 THI.
Assay endpoint: EC20 THI (nM)

- Compound: "O=C(NCC1CCCCN1)c1cc(OCC(F)(F)F)ccc1OCC(F)(F)F (stereo not drawn) [Flecainide, flecainide]"
  Units symbol: "nM"
  Reported relation: "="
  Endpoint result: 285
- Compound: "CSc1ccc2c(c1)N(CCC1CCCCN1C)c1ccccc1S2 (stereo not drawn) [Thioridazine, thioridazine]"
  Units symbol: "nM"
  Reported relation: "="
  Endpoint result: 530
- Compound: "CC(C)NCC(O)c1ccc(NS(C)(=O)=O)cc1 (stereo not drawn) [Sotalol, sotalol]"
  Units symbol: "nM"
  Reported relation: ">"
  Endpoint result: 30000
- Compound: "CC(C)(C)NCC(O)COc1cccc2c1CC(O)C(O)C2 (stereo not drawn) [Nadolol, nadolol]"
  Units symbol: "nM"
  Reported relation: ">"
  Endpoint result: 30000
- Compound: "COc1ccc(CCN2CCC(Nc3nc4ccccc4n3Cc3ccc(F)cc3)CC2)cc1 [Astemizole, astemizole]"
  Units symbol: "nM"
  Reported relation: "="
  Endpoint result: 55
- Compound: "COc1cc(N)c(Cl)cc1C(=O)NC1CCN(CCCOc2ccc(F)cc2)CC1OC (stereo not drawn) [Cisapride, cisapride]"
  Units symbol: "nM"
  Reported relation: "="
  Endpoint result: 105
